target: HER2 (Homo sapiens (Human)); experiment: BT474 cellular assay (HER2 inhibition), phospho-HER2 ELISA; settings: inhibition of phosphor HER2, BT474 cells, 2 hours compound incubation
Sequence (P04626 23-1255): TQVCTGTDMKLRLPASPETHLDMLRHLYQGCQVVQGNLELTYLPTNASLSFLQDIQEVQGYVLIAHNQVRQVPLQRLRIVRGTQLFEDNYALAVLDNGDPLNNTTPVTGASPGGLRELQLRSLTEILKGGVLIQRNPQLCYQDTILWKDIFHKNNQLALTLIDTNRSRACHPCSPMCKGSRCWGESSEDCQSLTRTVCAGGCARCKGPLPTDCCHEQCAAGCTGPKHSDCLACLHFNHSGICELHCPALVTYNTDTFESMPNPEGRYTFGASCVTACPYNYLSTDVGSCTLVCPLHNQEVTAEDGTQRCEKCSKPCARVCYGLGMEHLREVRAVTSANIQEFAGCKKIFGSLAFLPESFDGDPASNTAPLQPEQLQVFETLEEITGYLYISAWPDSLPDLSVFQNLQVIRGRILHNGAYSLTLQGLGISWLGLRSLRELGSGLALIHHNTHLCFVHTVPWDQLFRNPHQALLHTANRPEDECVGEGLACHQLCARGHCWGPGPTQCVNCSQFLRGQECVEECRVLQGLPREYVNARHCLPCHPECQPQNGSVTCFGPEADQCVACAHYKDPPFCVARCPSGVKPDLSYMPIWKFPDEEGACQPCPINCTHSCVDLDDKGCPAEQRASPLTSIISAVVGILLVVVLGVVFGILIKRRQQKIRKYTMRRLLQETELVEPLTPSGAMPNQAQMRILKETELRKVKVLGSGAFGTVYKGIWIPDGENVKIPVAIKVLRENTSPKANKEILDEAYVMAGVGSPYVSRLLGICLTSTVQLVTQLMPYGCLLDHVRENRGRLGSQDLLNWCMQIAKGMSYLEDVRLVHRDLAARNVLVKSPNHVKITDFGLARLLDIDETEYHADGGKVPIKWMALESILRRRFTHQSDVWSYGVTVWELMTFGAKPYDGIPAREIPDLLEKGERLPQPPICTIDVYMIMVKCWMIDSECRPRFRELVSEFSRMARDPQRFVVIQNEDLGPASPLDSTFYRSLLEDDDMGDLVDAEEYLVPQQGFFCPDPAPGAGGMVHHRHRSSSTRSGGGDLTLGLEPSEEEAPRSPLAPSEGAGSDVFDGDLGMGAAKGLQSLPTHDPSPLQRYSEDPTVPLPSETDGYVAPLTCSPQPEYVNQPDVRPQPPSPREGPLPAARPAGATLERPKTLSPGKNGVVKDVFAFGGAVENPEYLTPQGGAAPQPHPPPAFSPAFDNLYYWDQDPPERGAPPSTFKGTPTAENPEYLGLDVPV
pIC50: −log10 of the molar value.
RECORDED_ENDPOINT: pIC50

Look over these answered cases.
[2H]C([2H])([2H])Oc1ccc2ncnc(Nc3ccc(Oc4cc5ncnn5cn4)c(C)c3)c2c1O[C@@H]1CCN(C([2H])([2H])[2H])CC1(F)F :: 7.85
Cc1cc(Nc2ncnc3ccc(OC(C)C)c(O[C@H]4CCN(C)CC4(F)F)c23)ccc1Oc1cc2ncnn2cn1 :: 7.70
COc1ccc2ncnc(Nc3ccc(Oc4cc5ncnn5cn4)c(C)c3)c2c1N1CC[C@H](N(C)C)C1 :: 7.51

a. COc1ccc2ncnc(Nc3ccc(Oc4cc5ncnn5cn4)c(C)c3)c2c1O[C@H]1CN(C)CC1(F)F
b. COc1ccc2ncnc(Nc3ccc(Oc4cc5ncnn5cn4)c(C)c3)c2c1N1CC2(C[C@H](F)CN2C)C1 (single isomer, unassigned)
Asked: // which entry has the larger pIC50 value, a or b ? Please reply using the label of the selected record.
Given back: a
(a: 7.89, b: 7.62)

a. COc1ccc2ncnc(Nc3ccc(Oc4cc5ncnn5cn4)c(C)c3)c2c1O[C@@H]1CCN(C)CC1(F)F
b. COc1ccc2ncnc(Nc3ccc(Oc4cc5ncnn5cn4)c(C)c3)c2c1N1CC2C1CCN2C1CC1 (stereo not shown)
c. COc1ccc2ncnc(Nc3ccc(Oc4cc5ncnn5cn4)c(C)c3)c2c1N1CC2OCCN(C)C2C1 (stereo not shown)
d. C=CC(=O)N1CCC=C(c2cc(N3CC(N(C)C)C3)c3c(Nc4ccc(Oc5cc6ncnn6cn5)c(C)c4)ncnc3c2)C1
e. Cc1cc(Nc2ncnc3cccc(N4CC5(CN(C)CCO5)C4)c23)ccc1Oc1cc2ncnn2cn1
Asked: Order by pIC50, ascending. Answer with the labels in sequence, matching the requested order.
Given back: e, d, c, b, a
(e: 6.04, d: 6.68, c: 7.24, b: 7.77, a: 8.02)

A. COc1ccc2ncnc(Nc3ccc(Oc4cc5ncnn5cn4)c(C)c3)c2c1OC1CCNCC1(F)F (stereo not shown)
B. COc1ccc2ncnc(Nc3ccc(Oc4cc5ncnn5cn4)c(Cl)c3)c2c1O[C@H]1CCN(C)CC1(F)F
C. Cc1cc(Nc2ncnc3ccc(NC4=NC(C)(C)CO4)c(N4CC(N(C)C)C4)c23)ccc1Oc1cc2ncnn2cn1
D. Cc1cc(Nc2ncnc3ccc(OC(F)F)c(O[C@@H]4CCN(C)CC4(F)F)c23)ccc1Oc1cc2ncnn2cn1
Asked: Rank order required: pIC50, descending. Answer with the labels in sequence, matching the requested order.
Given back: A, B, D, C

1. COc1ccc2ncnc(Nc3ccc(Oc4cc5ncnn5cn4)c(C)c3)c2c1O[C@@H]1CCN(C(C)C)CC1(F)F
2. COc1cc2ncnc(Nc3ccc(Oc4cc5ncnn5cn4)c(C)c3)c2c(O[C@@H]2CCN(C)CC2(F)F)c1OC
Asked: // which entry has the larger pIC50 value, 1 or 2 ? Please reply using the label of the selected record.
Given back: 1
(1: 7.96, 2: 6.77)

1. Cc1cc(Nc2ncnc3ccc(OC(C)C)c(O[C@@H]4CCN(C)CC4(F)F)c23)ccc1Oc1cc2ncnn2cn1
2. [2H]C([2H])([2H])N1CCC(Oc2c(OC)ccc3ncnc(Nc4ccc(Oc5cc6ncnn6cn5)c(C)c4)c23)C(F)(F)C1 (stereo not shown)
Asked: Parameter metric = pIC50. Return the lower-valued option from 1 and 2 . Please reply using the label of the selected record.
Given back: 2
(2: 7.80, 1: 8.03)

P. COc1ccc2ncnc(Nc3ccc(Oc4cc5ncnn5cn4)c(C)c3)c2c1O[C@@H]1CCN(C2CC2)CC1(F)F
Q. COc1cc(O[C@H]2CCN(C)CC2(F)F)c2c(Nc3ccc(Oc4cc5ncnn5cn4)c(C)c3)ncnc2c1
Asked: // which entry has the larger pIC50 value, P or Q ? Please reply using the label of the selected record.
Given back: P

1. COc1ccc2ncnc(Nc3ccc(Oc4cc5ncnn5cn4)c(C)c3)c2c1N1C[C@@H]2[C@H]1CCN2C
2. COc1cc(O[C@@H]2CCN(C)CC2(F)F)c2c(Nc3ccc(Oc4cc5ncnn5cn4)c(C)c3)ncnc2c1
Asked: // which entry has the larger pIC50 value, 1 or 2 ? Please reply using the label of the selected record.
Given back: 1
(1: 8.14, 2: 6.74)

1. COc1ccc2ncnc(Nc3ccc(Oc4cc5ncnn5cn4)c(Cl)c3)c2c1O[C@@H]1CCN(C)CC1(F)F
2. C=CC(=O)N1CCC=C(c2ccc3ncnc(Nc4ccc(Oc5cc6ncnn6cn5)c(C)c4)c3c2N2CC(N(C)C)C2)C1
Asked: Parameter metric = pIC50. Return the lower-valued option from 1 and 2 . Please reply using the label of the selected record.
Given back: 2
(2: 6.75, 1: 8.10)
